molecular target: DNA topoisomerase 2-alpha (Homo sapiens) (UniProt P11388); experiment: Inhibition of human recombinant TOP2A-mediated relaxation of supercoiled Escherichia coli pBR322 DNA at 100 uM after 30 mins by transillumination
Sequence (P11388 whole entry): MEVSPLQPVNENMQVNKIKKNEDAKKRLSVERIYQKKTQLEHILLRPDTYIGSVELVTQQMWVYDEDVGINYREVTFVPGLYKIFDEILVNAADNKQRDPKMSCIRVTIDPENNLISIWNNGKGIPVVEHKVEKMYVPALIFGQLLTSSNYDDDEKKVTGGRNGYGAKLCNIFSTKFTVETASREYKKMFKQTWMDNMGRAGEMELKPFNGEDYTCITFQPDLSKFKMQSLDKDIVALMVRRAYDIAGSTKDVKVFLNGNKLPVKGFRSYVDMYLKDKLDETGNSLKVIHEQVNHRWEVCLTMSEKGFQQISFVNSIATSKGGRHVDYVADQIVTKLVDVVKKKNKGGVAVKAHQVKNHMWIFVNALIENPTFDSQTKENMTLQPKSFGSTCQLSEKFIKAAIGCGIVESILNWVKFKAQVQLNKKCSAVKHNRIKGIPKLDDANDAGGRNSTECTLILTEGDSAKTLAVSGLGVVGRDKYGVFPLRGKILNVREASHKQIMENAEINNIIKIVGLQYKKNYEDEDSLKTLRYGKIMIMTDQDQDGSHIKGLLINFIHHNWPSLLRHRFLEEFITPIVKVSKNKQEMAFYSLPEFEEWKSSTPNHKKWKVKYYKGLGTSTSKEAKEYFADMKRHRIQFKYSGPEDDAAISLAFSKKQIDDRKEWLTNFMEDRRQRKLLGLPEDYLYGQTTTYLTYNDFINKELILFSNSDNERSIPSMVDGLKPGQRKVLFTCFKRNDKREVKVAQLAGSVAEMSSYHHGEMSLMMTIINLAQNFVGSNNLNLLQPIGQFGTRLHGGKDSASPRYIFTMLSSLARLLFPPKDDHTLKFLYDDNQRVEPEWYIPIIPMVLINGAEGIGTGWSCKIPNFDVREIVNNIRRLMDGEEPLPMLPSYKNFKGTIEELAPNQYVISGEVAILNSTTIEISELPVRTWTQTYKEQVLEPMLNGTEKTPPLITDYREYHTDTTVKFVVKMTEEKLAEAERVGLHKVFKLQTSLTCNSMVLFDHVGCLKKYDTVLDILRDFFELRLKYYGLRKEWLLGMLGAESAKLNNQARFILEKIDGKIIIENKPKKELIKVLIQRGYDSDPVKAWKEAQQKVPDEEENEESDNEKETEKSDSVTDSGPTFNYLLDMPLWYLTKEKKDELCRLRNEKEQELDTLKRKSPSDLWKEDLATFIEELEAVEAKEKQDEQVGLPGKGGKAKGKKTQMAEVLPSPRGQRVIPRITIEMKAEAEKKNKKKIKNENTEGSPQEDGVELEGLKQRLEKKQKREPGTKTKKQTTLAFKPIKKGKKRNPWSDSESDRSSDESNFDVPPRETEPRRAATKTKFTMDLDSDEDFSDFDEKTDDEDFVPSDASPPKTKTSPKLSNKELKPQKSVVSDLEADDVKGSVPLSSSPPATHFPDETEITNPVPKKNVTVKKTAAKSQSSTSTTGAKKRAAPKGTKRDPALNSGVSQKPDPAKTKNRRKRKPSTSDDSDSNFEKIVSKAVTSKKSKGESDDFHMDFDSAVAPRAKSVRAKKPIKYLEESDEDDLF
Documented inhibition across a set of compounds
Write the quantity with the unit trailing the number.

Before answering, review these 3 worked examples.
1) Oc1cccc(-c2cc(-c3ccccc3)nc(-c3cccnc3)c2)c1    37.1%
2) Oc1ccc(-c2cc(-c3ccccc3)cc(-c3ccc(O)cc3)n2)cc1    76.8%
3) Oc1cccc(-c2cc(-c3ccccc3)nc(-c3cccs3)c2)c1    57.5%

Lab note: measured inhibition of Oc1cccc(-c2cc(-c3ccccc3)nc(-c3ccsc3)c2)c1 was 52.6%

compound Oc1ccc(-c2cc(-c3ccccc3)cc(-c3cccnc3)n2)cc1 , inhibition observed: 18.6%

compound Oc1cccc(-c2cc(-c3ccccc3)nc(-c3ccccc3)c2)c1 , inhibition observed: 68.2%

// sample Oc1cccc(-c2cc(-c3ccccc3)nc(-c3ccco3)c2)c1 , its inhibition was 47.5%

###

target: DNA topoisomerase 1 (Homo sapiens); test: Inhibition of human recombinant TOP1-mediated relaxation of supercoiled Escherichia coli pBR322 DNA at 100 uM after 30 mins by transillumination
Form field: inhibition (one value per entry).
Dear colleague, please return just the value in %, with no unit written.

Look over these answered cases.
1. Oc1ccc(-c2cc(-c3ccccc3)nc(-c3ccco3)c2)cc1    5
2. Oc1cccc(-c2cc(-c3ccccc3)nc(-c3cccs3)c2)c1    9.1
3. Oc1cccc(-c2cc(-c3ccccc3)nc(-c3ccccn3)c2)c1    10.8
4. Oc1cccc(-c2cc(-c3ccccc3)nc(-c3ccsc3)c2)c1    6.9
5. Oc1ccccc1-c1cc(-c2ccccc2)cc(-c2ccccc2O)n1    0

Record Oc1cccc(-c2cc(-c3ccccc3)nc(-c3ccncc3)c2)c1 , field inhibition: 60.8

# inhibition (compound: Oc1cccc(-c2cc(-c3ccccc3)cc(-c3cccs3)n2)c1 ) is 51.2

Recorded result, Oc1ccc(-c2cc(-c3ccccc3)cc(-c3cccs3)n2)cc1 , inhibition: 4.9

Measured inhibition, Oc1ccc(-c2cc(-c3ccccc3)cc(-c3ccco3)n2)cc1 : 18.6

Given item Oc1ccc(-c2cc(-c3ccccc3)cc(-c3ccsc3)n2)cc1 , the value recorded as its inhibition is 20.4

In plain terms, Oc1ccc(-c2cc(-c3ccccc3)cc(-c3ccc(O)cc3)n2)cc1 has a documented inhibition of 0.3

For reference, reported inhibition for Oc1cccc(-c2cc(-c3ccccc3)nc(-c3cccnc3)c2)c1 stands at 8.1

###

Target: DNA topoisomerase 1 (Homo sapiens) (UniProt P11387)
Sequence (whole entry): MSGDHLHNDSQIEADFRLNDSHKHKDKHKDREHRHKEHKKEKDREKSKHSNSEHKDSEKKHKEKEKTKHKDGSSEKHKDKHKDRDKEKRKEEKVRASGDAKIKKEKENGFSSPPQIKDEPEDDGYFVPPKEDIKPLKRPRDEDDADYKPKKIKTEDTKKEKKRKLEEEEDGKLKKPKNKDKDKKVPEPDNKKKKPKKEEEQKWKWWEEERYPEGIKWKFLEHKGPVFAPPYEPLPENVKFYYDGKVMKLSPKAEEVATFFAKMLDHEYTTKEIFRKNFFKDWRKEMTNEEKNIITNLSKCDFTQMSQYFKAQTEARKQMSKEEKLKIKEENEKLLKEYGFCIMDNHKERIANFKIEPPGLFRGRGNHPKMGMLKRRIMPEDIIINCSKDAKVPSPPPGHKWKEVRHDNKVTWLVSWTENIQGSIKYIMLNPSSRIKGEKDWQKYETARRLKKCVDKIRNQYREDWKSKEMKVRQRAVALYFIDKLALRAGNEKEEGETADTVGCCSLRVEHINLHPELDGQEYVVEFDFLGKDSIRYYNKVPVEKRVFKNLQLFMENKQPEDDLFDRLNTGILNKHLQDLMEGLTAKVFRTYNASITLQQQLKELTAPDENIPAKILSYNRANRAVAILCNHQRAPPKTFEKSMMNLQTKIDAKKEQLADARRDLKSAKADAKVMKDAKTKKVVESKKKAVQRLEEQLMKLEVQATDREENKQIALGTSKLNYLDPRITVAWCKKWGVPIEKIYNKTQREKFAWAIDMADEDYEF
Assay: Inhibition of human recombinant TOP1-mediated relaxation of supercoiled Escherichia coli pBR322 DNA at 100 uM after 30 mins by transillumination
measured quantity: inhibition (%)
Expressed in %, but write only the number.

The cases that follow already have their inhibition on record.
1. Oc1cccc(-c2cc(-c3ccccc3)nc(-c3ccco3)c2)c1    48.8
2. Oc1cccc(-c2cc(-c3ccccc3)cc(-c3ccco3)n2)c1    10.2
3. Oc1cccc(-c2cc(-c3ccccc3)nc(-c3ccccc3)c2)c1    11.5

Form field inhibition, entry Oc1ccc(-c2cc(-c3ccccc3)cc(-c3cccnc3)n2)cc1 : 44

inhibition for Oc1cccc(-c2cc(-c3ccccc3)cc(-c3cccc(O)c3)n2)c1 is 67.2

The reported inhibition of the compound Oc1ccccc1-c1cc(-c2ccccc2)nc(-c2ccco2)c1 was 1.5

Reported inhibition of Oc1cccc(-c2cc(-c3ccccc3)cc(-c3ccsc3)n2)c1 : 75.8

inhibition reading for Oc1ccc(-c2cc(-c3ccccc3)cc(-c3ccccc3)n2)cc1 : 52.9

// sample Oc1ccc(-c2cc(-c3ccccc3)nc(-c3ccncc3)c2)cc1 , its inhibition was 57.5

Sure, the documented inhibition for Oc1cccc(-c2cc(-c3ccccc3)cc(-c3ccccc3)n2)c1 is 12.9
